- ASSAY_REMARKS: qHTS profiling for inhibitors of Plasmodium falciparum proliferation (AID 504749); note: nearly all actives have a fitted effect of over 60% in size;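 for activity, negative = inhibition: 0% = DMSO vehicle and full inhibition = artemisinin control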
- SETTINGS: P. falciparum in erythrocytes, SYBR Green DNA, 72 h; at 28.7 µM (top of the series); parasite line B
Inconclusive results are not listed.
VALUE_TYPE: activity, negative = inhibition (%)
Report only the number, with the unit % understood.

CC1(C)SC2[C@@H](N=CN3CCCCCC3)C(=O)N2[C@H]1C(=O)O (stereo not given in full) : -13
C[C@@](Cc1ccccc1)(NC(=O)CN)c1ccccc1 : 2.96
CC1(C)O[C@@H]2C[C@H]3[C@@H]4CCC5=CC(=O)C=C[C@]5(C)[C@H]4C(O)C[C@]3(C)[C@]2(C(=O)CO)O1 (stereo not given in full) : -28
C=CCn1c(=O)n(C2OC(CO)C(O)C2O)c2nc(N)[nH]c(=O)c21 (stereo not given) : -6.68
C[C@@H](O)[C@@H]1C(=O)N2C(C(=O)O)=C([C@H]3CCCO3)S[C@H]12 : 2.27
CO/N=C(/C(=O)N[C@@H]1C(=O)N2C(C(=O)O)=C(CSc3nnnn3C)CS[C@H]12)c1csc(N)n1 : 0.88
CC1(C)C2CC[C@]1(C)[C@@H](O)C2 : 12
OCCN1CC(O)C(O)C(O)C1CO (stereo not given) : 21.3

Prompt line: Identify measured activity, negative = inhibition associated with C=C1C(n2cnc3c(=O)[nH]c(N)nc32)C[C@H](O)[C@H]1CO (stereo not given in full)
Response line: -7.65

Prompt line: Identify measured activity, negative = inhibition associated with Cc1c(C)c2c(c(C)c1O)CCC(C)(CCCC(C)CCCC(C)CCCC(C)C)O2 (stereo not given)
Response line: 8.58

* * *

- ASSAY_REMARKS: AP1 Signaling Pathway (AID 357);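 note: ME-180 reporter cells stimulated with EGF at its EC50 level; % is set by controls: 0 for no effect and ±100 for the full control effect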
- SETTINGS: ME-180 (cervical carcinoma) AP-1-bla reporter, EGF-induced, beta-lactamase ratio, 5 h; at 17.2 µM (top of the series) unless noted
Inconclusive results are not listed. The source made the active and inactive calls. The call rests on the fitted dose curve; in most records, active means well fitted curve in either direction with a large enough effect (not every such curve was filed as active); inconclusive means small, poorly fitted or top-dose-only effect, or another doubt; inactive means flat fitted curve, though single readings scatter.
// reported activity change, negative = inhibition per item

Please review the entries below; each comes with its answer.
CCOC(=O)c1cc(CC)sc1NC(=O)C1CC1 : -23.9% (inactive)
CCCOc1ccc(/C(O)=C2/C(=O)C(=O)N(CCN3CCOCC3)C2c2ccccc2)cc1 (stereo not drawn) : -16.7% (inactive)
Cc1cc(C)cc(CC2CC(=O)N(c3cc(C)on3)C2=O)c1 (stereo not drawn) : -8.62% (inactive)
CC12CCC(C(=O)N(CCC#N)CCC#N)(CC1=O)C2(C)C (stereo not drawn) : 10.6% (inactive)
COCC(C)Nc1ncnc2c1cnn2-c1ccc(Cl)cc1 (stereo not drawn) : -23.7% (inactive)
Cc1cc2c(c(=O)o1)C(CC(C)C)C(C#N)=C(N)O2 (stereo not drawn) : 14.1% (inactive)

Prompt line: Identify measured activity change, negative = inhibition associated with CCN(CC)S(=O)(=O)c1ccc2c(c1)c(C(=O)O)cn2C
Response line: -6.47% (inactive)

* * *

- Tested on: PC49
- ASSAY_REMARKS: qHTS profiling for inhibitors of Plasmodium falciparum proliferation (AID 504749); note: nearly all actives have a fitted effect of over 60% in size
- SETTINGS: P. falciparum in erythrocytes, SYBR Green DNA, 72 h; series mostly up to 28.7 µM
- Procedure: NIH National Institute of Allergy and Infectious Diseases [NIAID] NIH Chemical Genomics Center [NCGC] […] Because mature erythrocytes lack DNA, only Plasmodium-derived DNA is detected. NCGC Assay Protocol Summary: The SYBR Green viability assay was adapted from a method described previously (Plouffe et al., 2008). […] The following morning, fluorescence intensity at 485(14) nm excitation and 535(25) nm emission wavelengths was measured on an EnVision (Perkin Elmer) plate reader. […]
Inconclusive results are not listed. Active and inactive are the calls of the source. Calls follow the shape of the dose curve; as a rule, active = well fitted inhibition curve with a large enough effect; inconclusive = small, poorly fitted or top-dose-only effect; inactive = flat fitted curve, though single readings scatter.
# valid calls are active, inactive; nothing else

C=NC(C(=O)NC1C(=O)N2C1SC(C)(C)C2C(=O)O)c1ccccc1 (configuration not stated) : inactive
Cc1ccc(/C=C2/C(=O)C3(C)CCC2C3(C)C)cc1 (configuration not stated) : inactive
C[C@]12CC[C@@H]3c4ccc(O)cc4CC[C@H]3[C@@H]1C[C@H](O)C2O (some centres not stated) : inactive
C#C[C@@]1(O)CC[C@@H]2[C@H]3CCC4=C/C(=N\O)CC[C@H]4[C@@H]3CC[C@]21CC : inactive
CCCCC(=O)OC1CCC2C3CCc4cc(O)ccc4C3CC[C@]12C (some centres not stated) : inactive

Prompt line: Give the logged outcome of this assay for the following compound: COc1cccc2c1C(=O)c1c(O)c3c(c(O)c1C2=O)C[C@@](O)(C(=O)CO)C[C@@H]3OC1CC(N)C(O)C(C)O1 (some centres not stated)
Response line: active

Prompt line: Give the logged outcome of this assay for the following compound: COc1cccc(OC)c1C(=O)NC1C(=O)N2C1SC(C)(C)C2C(=O)O (configuration not stated)
Response line: inactive
